Values compiled from ChEMBL document CHEMBL2069237.

# System: RAW264.7
# Measurement Description: Antiinflammatory activity in mouse RAW264.7 cells assessed as inhibition of lipopolysaccharide-induced nitric oxide production at 50 uM pre-incubated for 4 hrs before LPS challenge for 24 hrs by Griess assay
# Type: functional
Endpoint Name: inhibition at 50 µM

Solved entries:
| Molecule | inhibition at 50 µM |
| --- | --- |
| COc1cc(O)c2c(=O)c(O[C@@H]3O[C@H](CO)[C@H](O)[C@H](OC(=O)C[C@@](C)(O)CC(=O)O)[C@H]3O[C@@H]3O[C@@H](C)[C@H](O)[C@@H](O)[C@H]3O)c(-c3ccc(O)cc3)oc2c1 [OXYTROFLAVOSIDE B] | < 5% |
| C[C@@H]1O[C@@H](OC[C@H]2O[C@@H](Oc3c(-c4ccc(O)cc4)oc4cc(O[C@@H]5O[C@@H](C)[C@H](O)[C@@H](O)[C@H]5O)cc(O)c4c3=O)[C@H](O)[C@@H](O)[C@@H]2O)[C@H](O)[C@H](O)[C@H]1O | < 5% |
| O=C(/C=C/c1ccccc1)c1ccc(O)cc1O [2',4'-DIHYDROXYCHALCONE] | 40.1% |
| C[C@@H]1O[C@@H](OC[C@H]2O[C@@H](Oc3c(-c4ccc(O)cc4)oc4cc(O)cc(O)c4c3=O)[C@H](O)[C@@H](O)[C@H]2O)[C@H](O)[C@H](O)[C@H]1O | < 5% |

Query: Quick one: inhibition at 50 µM of COc1cc(O)c2c(=O)c(O[C@@H]3O[C@H](CO[C@@H]4O[C@@H](C)[C@H](O)[C@@H](O)[C@H]4O)[C@H](O)[C@H](O)[C@H]3O[C@@H]3O[C@@H](C)[C@H](O)[C@@H](O)[C@H]3O)c(-c3ccc(O)cc3)oc2c1 [OXYTROFLAVOSIDE G] ?
Reply: < 5%

Query: Which inhibition at 50 µM reading was recorded for the molecule COc1cc(O)c2c(=O)c(O[C@@H]3O[C@H](CO)[C@H](OC(=O)C[C@@](C)(O)CC(=O)O)[C@H](O)[C@H]3O[C@@H]3O[C@@H](C)[C@H](O)[C@@H](O)[C@H]3O)c(-c3ccc(O)cc3)oc2c1 [OXYTROFLAVOSIDE C] ?
Reply: < 5%
